Where these numbers come from: patent US8729102B2

Target: Human ACC2 (ACC2 (Nd), N terminal deleted) (Homo sapiens, UniProt O00763)
Construct: made in house; host or cells: SF-9 insect cells (baculovirus)
Sequence (O00763 117-2458 limits assumed, stated change not applied): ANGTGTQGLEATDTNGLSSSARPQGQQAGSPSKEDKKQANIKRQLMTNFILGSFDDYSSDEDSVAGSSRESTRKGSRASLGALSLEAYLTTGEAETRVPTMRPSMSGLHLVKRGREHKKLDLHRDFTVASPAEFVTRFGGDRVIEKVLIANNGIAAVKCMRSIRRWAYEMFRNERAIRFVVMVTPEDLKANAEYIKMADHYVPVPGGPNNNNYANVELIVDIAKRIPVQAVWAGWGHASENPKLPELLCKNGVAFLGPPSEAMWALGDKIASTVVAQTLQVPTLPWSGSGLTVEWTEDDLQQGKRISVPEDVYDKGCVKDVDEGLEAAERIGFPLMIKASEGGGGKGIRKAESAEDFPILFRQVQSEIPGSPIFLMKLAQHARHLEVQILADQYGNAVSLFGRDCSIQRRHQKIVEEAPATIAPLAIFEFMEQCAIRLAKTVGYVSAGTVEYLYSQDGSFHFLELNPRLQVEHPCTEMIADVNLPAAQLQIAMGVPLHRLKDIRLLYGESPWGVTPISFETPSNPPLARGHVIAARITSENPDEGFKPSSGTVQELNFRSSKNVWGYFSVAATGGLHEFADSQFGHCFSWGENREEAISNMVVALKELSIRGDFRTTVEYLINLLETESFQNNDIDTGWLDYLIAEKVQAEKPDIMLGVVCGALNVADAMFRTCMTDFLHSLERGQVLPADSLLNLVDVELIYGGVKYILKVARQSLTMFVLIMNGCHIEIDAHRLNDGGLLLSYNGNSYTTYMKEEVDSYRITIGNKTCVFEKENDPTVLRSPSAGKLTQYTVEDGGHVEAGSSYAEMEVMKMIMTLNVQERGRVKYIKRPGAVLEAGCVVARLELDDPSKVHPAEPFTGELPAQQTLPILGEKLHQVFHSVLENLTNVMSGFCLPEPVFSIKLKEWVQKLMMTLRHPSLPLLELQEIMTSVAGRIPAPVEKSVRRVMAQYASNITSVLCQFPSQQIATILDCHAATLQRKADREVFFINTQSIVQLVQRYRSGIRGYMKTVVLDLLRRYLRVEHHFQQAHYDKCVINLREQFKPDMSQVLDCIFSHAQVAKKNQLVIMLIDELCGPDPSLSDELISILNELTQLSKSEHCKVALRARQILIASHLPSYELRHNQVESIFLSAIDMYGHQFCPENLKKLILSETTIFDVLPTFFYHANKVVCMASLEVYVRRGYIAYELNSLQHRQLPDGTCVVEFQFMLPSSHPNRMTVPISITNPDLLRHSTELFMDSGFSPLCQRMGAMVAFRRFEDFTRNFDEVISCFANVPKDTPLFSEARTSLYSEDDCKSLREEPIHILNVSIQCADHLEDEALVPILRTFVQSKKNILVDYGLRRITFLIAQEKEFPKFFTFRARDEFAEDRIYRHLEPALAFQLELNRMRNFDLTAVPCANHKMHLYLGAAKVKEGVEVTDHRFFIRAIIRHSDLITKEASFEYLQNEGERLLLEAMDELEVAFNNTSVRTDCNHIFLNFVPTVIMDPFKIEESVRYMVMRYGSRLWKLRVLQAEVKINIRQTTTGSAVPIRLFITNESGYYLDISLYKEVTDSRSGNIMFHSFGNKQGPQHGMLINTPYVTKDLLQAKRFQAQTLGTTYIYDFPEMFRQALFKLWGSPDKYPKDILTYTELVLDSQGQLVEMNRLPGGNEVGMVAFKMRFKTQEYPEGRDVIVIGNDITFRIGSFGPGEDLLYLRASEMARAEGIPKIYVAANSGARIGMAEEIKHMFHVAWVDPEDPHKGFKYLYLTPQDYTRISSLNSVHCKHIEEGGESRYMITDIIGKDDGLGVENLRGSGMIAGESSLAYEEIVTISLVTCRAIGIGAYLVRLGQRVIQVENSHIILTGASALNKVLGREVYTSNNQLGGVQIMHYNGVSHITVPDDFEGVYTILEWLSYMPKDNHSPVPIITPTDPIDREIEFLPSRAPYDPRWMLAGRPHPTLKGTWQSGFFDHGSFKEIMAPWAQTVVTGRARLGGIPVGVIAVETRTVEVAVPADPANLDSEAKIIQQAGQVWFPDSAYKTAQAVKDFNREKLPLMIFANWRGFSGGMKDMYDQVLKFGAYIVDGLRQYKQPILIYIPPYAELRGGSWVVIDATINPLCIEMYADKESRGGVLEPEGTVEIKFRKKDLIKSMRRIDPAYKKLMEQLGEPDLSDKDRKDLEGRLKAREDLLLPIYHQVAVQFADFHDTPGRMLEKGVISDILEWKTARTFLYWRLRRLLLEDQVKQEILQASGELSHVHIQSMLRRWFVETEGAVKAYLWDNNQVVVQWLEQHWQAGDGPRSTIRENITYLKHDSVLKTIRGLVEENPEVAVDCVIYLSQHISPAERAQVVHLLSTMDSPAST
Assay: Measurement of ACC2 inhibitory activity (malachite green, recombinant ACC2 (Nd))
Assay type: biochemical
Settings: 10 μM test compound; 20 min preincubation at 30° C., 20 min reaction; read-out: ACC2 inhibitory rate at 10 μM (%)
metric: inhibition at 10 µM (%)

CC(=O)N[C@@H](C)COc1ccc(-c2nc3cc(OCC4CC4)ccn3n2)cc1 : 94
CC(=O)N[C@@H](C)COc1ccc(-n2cc3ccc(OCC4CC4)cc3n2)cc1 : 94
CCOc1ccc2cn(-c3ccc(OC[C@H](C)NC(C)=O)cc3F)nc2c1 [Example 25, monohydrate] : 90
COC(=O)N[C@@H](C)COc1ccc(-c2nc3ccc(OCC4CC4)cc3o2)nc1 : 90
CC(=O)N[C@@H](C)COc1ccc(-n2nc3cc(OCC4CC4)ccc3c2F)cc1 : 99
CC(=O)N[C@@H](C)COc1cc(-c2nc3cc(OC(C)C)ccc3o2)on1 : 85
CCC1(c2ccc(OC[C@H](C)NC(C)=O)cn2)Cc2ccc(OCC3CC3)cc2O1 (some centres unmarked) : 97
C[C@@H](COc1ccc(-n2cc3ccc(OCC4CC4)cc3n2)cc1)NC(=O)N(C)C : 93

====

Target: Human ACC2 (ACC2 (Nd), N terminal deleted) (Homo sapiens, UniProt O00763)
Construct: made in house; host or cells: SF-9 insect cells (baculovirus)
Experiment: Measurement of ACC2 inhibitory activity (malachite green, recombinant ACC2 (Nd))
Assay type: biochemical
Settings: 10 μM test compound; 20 min preincubation at 30° C., 20 min reaction; read-out: ACC2 inhibitory rate at 10 μM (%)
metric: inhibition at 10 µM (%)

CC(=O)N[C@@H](C)COc1ccc(-c2nc3ccc(OCC4CC4)cn3c2F)cc1 : 93
CCOc1ccc2cc(-c3ccc(OC[C@H](C)NC(C)=O)cc3)nn2c1 : 93
CC(=O)N[C@@H](C)COc1ccc(-n2cc3cc(OCC4CC4)ccc3n2)cc1 : 103
CC(=O)N[C@@H](C)COc1ccc(-c2nc3ccc(OCC4CC4)cc3o2)cc1 : 99
CC(=O)N[C@@H](C)COc1ccc(-c2cc3ccc(OCC4CC4)cn3n2)c(F)c1 : 102
